Molecular target: T1, human serum albumin (human, UniProt P02768 25-609)
T1 construct: also called HSA; HuSA
Assay: SPR (Biacore), albumin immobilized on CM5 chip
# koff listing for each entry below
Lab book: enter the figure in s⁻¹, no units written.

Some binders with recorded koff:
| binder | koff, s⁻¹ |
| --- | --- |
| SABA4.1 (designed binder, His6-tagged Adnectin core 4; has a scaffold mutation; the scaffold-perfect version is SABA5) MGVSDVPRDLEMVAATPTSLLISWEDDSYYSRYYRITYGETGGNSPVQEFTVPSDLYTATISGLKPGVDYTITVYAVTYDVTDLIMHEPISINYRTEIDKPSQHHHHHH | 0.000782 |
| SABA3.1 (designed binder, His6-tagged Adnectin core 3) MGVSDVPRDLEVVAATPTSLLISWSNDGPGLSYYRITYGETGGNSPVQEFTVPSSQTTATISGLKPGVDYTITVYAVSYYTKKAYSAGPISINYRTEIDKPSQHHHHHH | 0.0682 |
| SABA2.1 (designed binder, His6-tagged Adnectin core 2) MGVSDVPRDLEVVAATPTSLLISWPKYDKTGHYYRITYGETGGNSPVQEFTVPTRQTTATISGLKPGVDYTITVYAVSKDDYYPHEHRPISINYRTEIDKPSQHHHHHH | 0.000171 |

Now consider a different binder.
[ask] Fill in koff for record SABA1.1 (designed binder) MGVSDVPRDLEVVAATPTSLLISWHSYYEQNSYYRITYGETGGNSPVQEFTVPYSQTTATISGLKPGVDYTITVYAVYGSKYYYPISINYRTEIDKPSQHHHHHH
[reply] 0.000457
